Entries and their viability, T/C
Tested on: 993429-296-R-J1-PDC complex spheroid growth, percent test/control
Procedure Text: Anticancer human tumor 993429-296-R-J1-PDC patient-derived uterine sarcoma cell line growth inhibition [Asc]
Measurement Parameters: second compound 0.316 µM; first compound 0.949 µM; stronger effect = lower value

Past entries and their recorded results:
Compound: Cc1nc(N2CCC3(CC2)COC(C)C3N)c(CO)nc1Sc1ccnc(N)c1Cl (centres undefined) + CNC(C)C(=O)NC1CN(S(=O)(=O)c2cccc(S(=O)(=O)N3CCC4CCC(C(=O)NC(c5ccccc5)c5ccccc5)N4C(=O)C(NC(=O)C(C)NC)C3)c2)CCC2CCC(C(=O)NC(c3ccccc3)c3ccccc3)N2C1=O
viability, T/C: 32.4%

Compound: CCN1C(C(=O)NC23CCC(C(=O)O)(CC2)CC3)C(c2cccc(Cl)c2F)C2(C(=O)Nc3cc(Cl)ccc32)C12CCCCC2 (centres undefined) + Cc1c(S(C)(=O)=O)c(-c2cc(F)cc(N3CCN(c4ccc(NS(=O)(=O)c5ccc(NC(CCN6CCC(C(=O)OCCCP(=O)(O)O)CC6)CSc6ccccc6)c(S(=O)(=O)C(F)(F)F)c5)cc4)CC3)c2)c(-c2ccc(Cl)cc2)n1C(C)C
viability, T/C: 54.8%

Compound: CCN1C(C(=O)NC23CCC(C(=O)O)(CC2)CC3)C(c2cccc(Cl)c2F)C2(C(=O)Nc3cc(Cl)ccc32)C12CCCCC2 (centres undefined) + CNC(C)C(=O)NC1CN(S(=O)(=O)c2cccc(S(=O)(=O)N3CCC4CCC(C(=O)NC(c5ccccc5)c5ccccc5)N4C(=O)C(NC(=O)C(C)NC)C3)c2)CCC2CCC(C(=O)NC(c3ccccc3)c3ccccc3)N2C1=O
viability, T/C: 68.7%

With those in mind, consider the next compound.
stdin: Find the measured viability, T/C: item Cc1nc(N2CCC3(CC2)COC(C)C3N)c(CO)nc1Sc1ccnc(N)c1Cl (centres undefined) + Cc1c(S(C)(=O)=O)c(-c2cc(F)cc(N3CCN(c4ccc(NS(=O)(=O)c5ccc(NC(CCN6CCC(C(=O)OCCCP(=O)(O)O)CC6)CSc6ccccc6)c(S(=O)(=O)C(F)(F)F)c5)cc4)CC3)c2)c(-c2ccc(Cl)cc2)n1C(C)C , target or system 993429-296-R-J1-PDC complex spheroid growth, percent test/control.
stdout: 14.1%

---

Tested on: 993429-296-R-J1-PDC complex spheroid growth, percent test/control
Procedure Text: Anticancer human tumor 993429-296-R-J1-PDC cell line growth inhibition [Asc];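 further: spheroids exposed to compounds for seven days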
Measurement Parameters: second compound 0.949 µM; first compound 0.316 µM; stronger effect = lower value
Exam item: assign T to entries whose viability, T/C is below 60% and F to entries at or above 60%. Note that a value of exactly 60% receives F.

Examples from the recorded data:
Compound: O=C(c1cc(Cc2n[nH]c(=O)c3ccccc23)ccc1F)N1CCN(C(=O)C2CC2)CC1 + CCN1C(C(=O)NC23CCC(C(=O)O)(CC2)CC3)C(c2cccc(Cl)c2F)C2(C(=O)Nc3cc(Cl)ccc32)C12CCCCC2
Label Class: F
//
Compound: C#Cc1c(F)ccc2cc(O)cc(-c3ncc4c(N5CC6CCC(C5)N6)nc(OCC56CCCN5CC(F)C6)nc4c3F)c12 (stereo unspecified) + CCN1C(C(=O)NC23CCC(C(=O)O)(CC2)CC3)C(c2cccc(Cl)c2F)C2(C(=O)Nc3cc(Cl)ccc32)C12CCCCC2
Label Class: F
//
Compound: CCN1CCN(Cc2ccc(Nc3ncc(F)c(-c4cc(F)c5nc(C)n(C(C)C)c5c4)n3)nc2)CC1 + CCN1C(C(=O)NC23CCC(C(=O)O)(CC2)CC3)C(c2cccc(Cl)c2F)C2(C(=O)Nc3cc(Cl)ccc32)C12CCCCC2
Label Class: F
//
Compound: O=C(c1ccc(F)c(F)c1Nc1ccc(I)cc1F)N1CC(O)([C@@H]2CCCCN2)C1 + CCN1C(C(=O)NC23CCC(C(=O)O)(CC2)CC3)C(c2cccc(Cl)c2F)C2(C(=O)Nc3cc(Cl)ccc32)C12CCCCC2
Label Class: T
//
Compound: COc1c(OCCCN2CCOCC2)ccc2c3n(c(=NC(=O)c4cnc(N)nc4)nc12)CCN3 + CCN1C(C(=O)NC23CCC(C(=O)O)(CC2)CC3)C(c2cccc(Cl)c2F)C2(C(=O)Nc3cc(Cl)ccc32)C12CCCCC2
Label Class: T

Attention now shifts to the item below.
stdin: Item CNC(C)C(=O)NC1CN(S(=O)(=O)c2cccc(S(=O)(=O)N3CCC4CCC(C(=O)NC(c5ccccc5)c5ccccc5)N4C(=O)C(NC(=O)C(C)NC)C3)c2)CCC2CCC(C(=O)NC(c3ccccc3)c3ccccc3)N2C1=O (stereo unspecified) + CCN1C(C(=O)NC23CCC(C(=O)O)(CC2)CC3)C(c2cccc(Cl)c2F)C2(C(=O)Nc3cc(Cl)ccc32)C12CCCCC2 : viability, T/C beneath 60%, strictly?
stdout: T
